Test: folding enthalpy; higher = less favourable; fluorescence melt of hairpins on a sequencing array, two-state fit
Details: sodium 0.088 M
I would appreciate it if you labelled entries yes when folding enthalpy is -30 kcal/mol or higher, otherwise no.

[[record]]
sequence_input = "GGGCCTGCGAAAGCACCC (((..(((....))))))"
cat = "yes"

[[record]]
sequence_input = "GCCTAGGAAACTAGGC ((((((....))))))"
cat = "no"

[[record]]
sequence_input = "GCGAATGGAAACGTTCGC (((((.(....).)))))"
cat = "no"

[[record]]
sequence_input = "GATCTCCTCTGAGATC ((((((....))))))"
cat = "no"

[[record]]
sequence_input = "GCGCTAGCGAAAGCTCGC (((..(((....))))))"
cat = "yes"

[[record]]
sequence_input = "GCTCTGCGAAAGCCCAGC (((..((....))..)))"
cat = "yes"

[[record]]
sequence_input = "GAGTGGGGAAACCCACCC (.(((((....))))).)"
cat = "yes"

[[record]]
sequence_input = "GATCTTCGGAAGATC ((((((...))))))"
cat = "no"

[[record]]
sequence_input = "AGAGTGAAAACTCT (((((....)))))"
cat = "yes"

[[record]]
sequence_input = "GCATTGCGAAAGCCACGC ((.(.((....)).).))"
cat = "yes"

[[record]]
sequence_input = "GGAACTCGAAAGAGCTCC (((.(((....))).)))"
cat = "no"

[[record]]
sequence_input = "GGTTAGGGAAACCCAACC ((((.((....)).))))"
cat = "yes"

[[record]]
sequence_input = "GCCGGCGAAAGCCATGGC ((((((....)))..)))"
cat = "yes"

[[record]]
sequence_input = "GTACACGAAAGTGTTTAC ((((((....)))..)))"
cat = "yes"

[[record]]
sequence_input = "GATCCTATTGAGGATC ((((((....))))))"
cat = "no"

[[record]]
sequence_input = "GTCTTGGGAAACTAAGAC (((((.(....).)))))"
cat = "no"

[[record]]
sequence_input = "GATTCGGGAAACCAAATC ((((.((....)).))))"
cat = "yes"

[[record]]
sequence_input = "GATCCCTAAGGGGATC ((((((....))))))"
cat = "no"

[[record]]
sequence_input = "GTACACGAAAGTGGATAC ((((((....)))..)))"
cat = "yes"

[[record]]
sequence_input = "GAGCGTGCGAAAGCACTC (((..(((....))))))"
cat = "yes"

[[record]]
sequence_input = "GTATGCCGAAAGGCTTAC (((.(((....))).)))"
cat = "yes"

[[record]]
sequence_input = "GCGTACCAACGC ((((....))))"
cat = "yes"


====

Assay: melting temperature; fluorescence melt of hairpins on a sequencing array, two-state fit, raised by 9.35 °C to match UV melts
Settings: sodium 0.088 M
Quick reference for Tm among some sequences
ASSAY_ENDPOINT: Tm (°C)

[[record]]
sequence_input = "GTGGGAGGAAACCCCCAC (((((.(....).)))))"
reported_measurement = 50.3

[[record]]
sequence_input = "GGTCTAGGAAACTGGACC ((((.((....)).))))"
reported_measurement = 51

[[record]]
sequence_input = "GCAAGCGAAAGCTATGC ((((((....))).)))"
reported_measurement = 51.2

[[record]]
sequence_input = "GGCTTAGGAAACTAGGCC (((.(((....))).)))"
reported_measurement = 48.7

[[record]]
sequence_input = "GGCTCTCCGAAAGGAGCC (((..(((....))))))"
reported_measurement = 49

[[record]]
sequence_input = "GATCAAGGCATTGATC ((((((....))))))"
reported_measurement = 50.5

